- assay_system: human CD3 (huCD3ed) (human) (UniProt P07766)
- Sequence (P07766 23-126, chain 1 of 2): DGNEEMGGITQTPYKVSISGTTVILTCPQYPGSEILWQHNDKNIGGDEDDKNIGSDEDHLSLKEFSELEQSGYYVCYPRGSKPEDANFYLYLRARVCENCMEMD
- Sequence (P04234 22-105, chain 2 of 2, further chain): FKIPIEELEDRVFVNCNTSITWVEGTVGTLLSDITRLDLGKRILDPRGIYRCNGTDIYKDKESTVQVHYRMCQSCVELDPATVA
- method_summary: Biacore SPR, bispecific hIgG2dA format, 37 C; CD3 antigen not given
readout_type: koff (s⁻¹)
Give your result in s⁻¹ as a bare value.

Some binders with known koff results, for comparison:
Exercise: Note down koff recorded for h2B4-1d_Ep (bispecific antibody, part only; not given: anti-EpCam arm, constant regions, V domains shown, not shown: another chain or arm of the molecule; a dimerising Fc or GST; small tags and cut ends) VH: EVQLVESGGGLVQPGGSLRLSCAASGFTFSDYYMTWVRQAPGKGLEWVAFIRNRARGYTSDHNASVKGRFTISRDNAKNSLYLQMNSLRAEDTAVYYCARDRPSYYVLDYWGQGTTVTVSS VL: DIVMTQSPDSLAVSLGERATINCTSSQSLFNVRSRKNYLAWYQQKPGQPPKLLISWASTRESGVPDRFSGSGSGTDFTLTISSLQAEDVAVYYCKQSYDLFTFGSGTKLEIK
Key: 0.0237

Exercise: Note down koff recorded for h25A8-B5_Ep (bispecific antibody, part only; not given: anti-EpCam arm, constant regions, V domains shown, not shown: another chain or arm of the molecule; a dimerising Fc or GST; small tags and cut ends) VH: EVQLVESGGGLVKPGGSLRLSCAASGFTFSTYAMNWVRQAPGKGLEWVGRIRSKINNYATYYAESVKGRFTISRDDSKNTLYLQMNSLKTEDTAVYYCVRHETLRSGISWFASWGQGTLVTVSS VL: QAVVTQEPSLTVSPGGTVTLTCRSSTGAVTTSNYANWVQQKPGQAPRGLIGGTNTRAPGTPARFSGSLLGGKAALTLSGAQPEDEAEYYCVLWYNNYWVFGGGTKLTVL
Key: 0.0581

Continuing:
Exercise: Note down koff recorded for h2B4-hnpsTK_Ep (bispecific antibody, part only; not given: anti-EpCam arm, constant regions, V domains shown, not shown: another chain or arm of the molecule; a dimerising Fc or GST; small tags and cut ends) VH: EVQLVESGGGLVQPGGSLRLSCAASGFTFSDYYMTWVRQAPGKGLEWVAFIRNRARGYTSDHNPSVKGRFTISRDNAKNSLYLQMNSLRAEDTAVYYCARDRPSYYVLDYWGQGTTVTVSS VL: DIVMTQSPDSLAVSLGERATINCKSSQSLFNVRSRKNYLAWYQQKPGQPPKLLISWASTRESGVPDRFSGSGSGTDFTLTISSLQAEDVAVYYCKQSYDLFTFGSGTKLEIK
Key: 0.0235
